Assay: qHTS assay to identify small molecule agonists of the estrogen related receptor (ERR) signaling pathway (AID 1224820)
Settings: ERR reporter cell line, luciferase agonist mode; series mostly up to 46.1 µM
Inconclusive results are not listed. Calls of active or inactive are those of the source. The call rests on the fitted dose curve; in most records, active means well fitted activation curve with a large enough effect in the repeat runs; inconclusive means weak or mixed curves; inactive means no such curve, though single readings can be large or run the other way.
MEASUREMENT_KIND: outcome

COMPOUND	MEASUREMENT_KIND	VALUE_MEASURED
Nc1nc(N)c2nc(-c3ccccc3)c(N)nc2n1	outcome	inactive
c1cnc2c(c1)ccc1cccnc12	outcome	inactive
O=c1n(CCCN2CCN(c3cccc(Cl)c3)CC2)nc2ccccn12	outcome	inactive
CC(CN1c2ccccc2Sc2ccccc21)N(C)C (centres undefined)	outcome	inactive
